Every entry's value here was drawn from patent US10669272B2.

# assay-target: human DGKζ (Homo sapiens, UniProt Q13574)
# Construct: TVMV protease cleavage site (C); Hexa-His (C); made in house; host or cells: Sf9 insect cells (baculovirus, Bac-to-Bac)
# Sequence (Q13574 with tags, fused parts or gaps isoform Q13574-4): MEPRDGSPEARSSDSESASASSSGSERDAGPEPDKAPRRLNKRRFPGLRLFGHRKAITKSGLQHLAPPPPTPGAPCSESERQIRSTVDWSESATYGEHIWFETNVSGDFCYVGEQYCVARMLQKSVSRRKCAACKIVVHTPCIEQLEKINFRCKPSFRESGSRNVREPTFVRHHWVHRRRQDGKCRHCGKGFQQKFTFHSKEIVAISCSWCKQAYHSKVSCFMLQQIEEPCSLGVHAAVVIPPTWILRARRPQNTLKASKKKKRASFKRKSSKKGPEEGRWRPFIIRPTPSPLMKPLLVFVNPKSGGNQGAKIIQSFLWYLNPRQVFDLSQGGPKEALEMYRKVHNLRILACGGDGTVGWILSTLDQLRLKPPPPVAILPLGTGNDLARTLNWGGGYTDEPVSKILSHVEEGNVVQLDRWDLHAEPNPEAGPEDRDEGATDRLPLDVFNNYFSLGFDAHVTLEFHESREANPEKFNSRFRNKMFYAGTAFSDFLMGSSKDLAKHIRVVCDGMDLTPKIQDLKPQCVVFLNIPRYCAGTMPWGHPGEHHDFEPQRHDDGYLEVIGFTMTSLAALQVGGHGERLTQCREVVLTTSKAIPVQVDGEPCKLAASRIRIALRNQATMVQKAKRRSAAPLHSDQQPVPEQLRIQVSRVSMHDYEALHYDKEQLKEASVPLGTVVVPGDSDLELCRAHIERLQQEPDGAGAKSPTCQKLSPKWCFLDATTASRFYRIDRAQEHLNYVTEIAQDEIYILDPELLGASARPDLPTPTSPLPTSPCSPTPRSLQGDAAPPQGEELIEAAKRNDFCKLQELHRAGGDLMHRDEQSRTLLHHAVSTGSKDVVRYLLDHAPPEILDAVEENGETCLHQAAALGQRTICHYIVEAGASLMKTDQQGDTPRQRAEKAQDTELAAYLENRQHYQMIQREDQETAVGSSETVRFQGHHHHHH
# experiment-notes: DGKζ LIPGLO assay (extruded liposome substrate), in vitro DGK inhibition
# Type: biochemical
# condition-set: DGKζ liposome (LIPGLO) assay; read-out: DGKz LIPGLO IC50
pIC50: −log10 of the molar value.
assay-readout: pIC50

compound	pIC50
Cc1cccc(C(c2ccc(F)cc2)N2CCN(c3c(C#N)c(=O)n(C)c4ccc(C#N)nc34)C[C@H]2C)c1 (stereo partly drawn) [Example 917]	6.15
Cc1cc(C)cc(CN2CCN(c3c(C#N)c(=O)n(C)c4ccc(C#N)nc34)C[C@H]2C)c1 [Example 1000]	5.21
C[C@@H]1CN(c2c(C#N)c(=O)n(C)c3ccc(C#N)nc23)CCN1C(c1ccc(Cl)cc1)c1ccc2c(c1)OC(F)(F)O2 (single isomer, unassigned) [Example 941]	4.70

[a] Cc1ccc(C(C)N2C[C@H](C)N(c3c(C#N)c(=O)n(C)c4ccc(C#N)nc34)C[C@H]2C)cc1 (single isomer, unassigned) [Example 784]
[b] C[C@@H]1CN(c2c(C#N)c(=O)n(C)c3ccc(C#N)nc23)CCN1C(c1ccc(F)cc1)c1ccc(F)cc1F (stereo partly drawn) [Example 946]
[c] C[C@@H]1CN(c2c(C#N)c(=O)n(C)c3ccc(C#N)nc23)[C@@H](C)CN1C(c1ccc(F)cc1)c1ccc(C#N)cc1 (single isomer, unassigned) [Example 824]
Query: rank_up(items): orders items by reported pIC50 in ascending numerical order. The reply should contain the labels ordered as requested.
Reply: c, a, b
(c: 4.96, a: 5.59, b: 6.14)

----------
# assay-target: human DGKζ (Homo sapiens)
# Construct: TVMV protease cleavage site (C); Hexa-His (C); made in house; host or cells: Sf9 insect cells (baculovirus, Bac-to-Bac)
# experiment-notes: DGKζ LIPGLO assay (extruded liposome substrate), in vitro DGK inhibition
# Assay type: biochemical
# condition-set: DGKζ liposome (LIPGLO) assay; read-out: DGKz LIPGLO IC50
assay-readout: IC50 (µM)

Below are worked cases with known answers.
> print(dat)
                                   compound  value
1  C[C@@H]1CN(c2c(C#N)c(=O)n(C)c3ccc(C#N)nc23)CCN1Cc1ccccn1 [Example 990]     25
2  COC(=O)c1ccc(C(C)N2C[C@H](C)N(c3c(C#N)c(=O)n(C)c4ccc(C#N)nc34)C[C@H]2C)cc1 (single isomer, unassigned) [Example 794]    120

[I] Cc1cccc(CN2CCN(c3c(C#N)c(=O)n(C)c4ccc(C#N)nc34)C[C@H]2C)n1 [Example 988]
[II] C[C@@H]1CN(c2c(C#N)c(=O)n(C)c3ccc(C#N)nc23)[C@@H](C)CN1C(c1ccc(F)cc1)c1ncccc1F (single isomer, unassigned) [Example 820]
[III] C[C@@H]1CN(c2cc(=O)n(C)c3ccc(C#N)nc23)[C@@H](C)CN1C(c1ccc(F)cc1)c1csc(C2CC2)n1 (single isomer, unassigned) [Example 723]
[IV] CC(C)c1nnc(C(c2ccc(F)cc2)N2C[C@H](C)N(c3cc(=O)n(C)c4ccc(C#N)nc34)C[C@H]2C)s1 (single isomer, unassigned) [Example 772]
Query: # sort list by recorded IC50, greatest to least The reply should contain the labels ordered as requested.
Reply: I, II, IV, III
(I: 5.3 µM, II: 2 µM, IV: 0.027 µM, III: 0.011 µM)

----------
# assay-target: human DGKα (Homo sapiens, UniProt P23743)
# Construct: TVMV protease cleavage site (C); Hexa-His (C); made in house; host or cells: Sf9 insect cells (baculovirus, Bac-to-Bac)
# Sequence (P23743 with tags, fused parts or gaps): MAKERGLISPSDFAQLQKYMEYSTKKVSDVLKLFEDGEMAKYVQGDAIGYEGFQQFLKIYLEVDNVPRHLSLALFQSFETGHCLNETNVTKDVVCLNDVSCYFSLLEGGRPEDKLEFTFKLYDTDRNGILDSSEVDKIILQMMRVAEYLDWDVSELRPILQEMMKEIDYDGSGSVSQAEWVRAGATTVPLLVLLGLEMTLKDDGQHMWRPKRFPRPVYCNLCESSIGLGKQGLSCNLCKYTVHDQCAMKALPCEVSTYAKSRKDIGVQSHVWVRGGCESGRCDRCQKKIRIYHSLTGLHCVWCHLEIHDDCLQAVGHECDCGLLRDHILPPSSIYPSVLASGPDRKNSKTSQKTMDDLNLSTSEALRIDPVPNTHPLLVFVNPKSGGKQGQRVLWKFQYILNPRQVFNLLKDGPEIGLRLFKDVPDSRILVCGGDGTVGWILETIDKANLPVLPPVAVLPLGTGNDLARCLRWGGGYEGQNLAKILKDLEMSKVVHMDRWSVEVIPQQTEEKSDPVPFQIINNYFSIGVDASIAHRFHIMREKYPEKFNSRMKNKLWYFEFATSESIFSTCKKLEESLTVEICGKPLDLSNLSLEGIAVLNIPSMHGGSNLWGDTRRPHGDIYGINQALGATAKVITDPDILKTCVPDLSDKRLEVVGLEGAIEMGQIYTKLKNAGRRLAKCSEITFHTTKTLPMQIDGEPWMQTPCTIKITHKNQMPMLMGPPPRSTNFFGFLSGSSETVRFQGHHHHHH
# experiment-notes: DGKα LIPGLO assay (extruded liposome substrate), in vitro DGK inhibition
# Format: biochemical
# condition-set: liposome (LIPGLO) assay; read-out: DGKa LIPGLO IC50
assay-readout: IC50 (nM)

compound	assay-target	IC50 / nM
C[C@@H]1CN(c2cc(=O)n(C)c3ccc(C#N)nc23)[C@@H](C)CN1C(c1ccc(Cl)cc1)c1cccc(F)n1 (single isomer, unassigned) [Example 195]	human DGKα (Homo sapiens, UniProt P23743)	1100

[I] C[C@@H]1CN(c2cc(=O)n(C)c3ccc(C#N)nc23)[C@@H](C)CN1C(c1ccc(F)cc1)c1cccc(S(C)(=O)=O)c1 (single isomer, unassigned) [Example 688]
[II] C[C@H]1CN(C(c2ccc(F)cc2)c2ccc(F)cc2)[C@H](CN(C)C)CN1c1cc(=O)n(C)c2ccc(C#N)nc12
[III] CCC(c1ccc(OC(F)(F)F)cc1F)N1C[C@H](CC)N(c2cc(=O)n(C)c3ccc(C#N)nc23)C[C@H]1CC (single isomer, unassigned) [Example 1057]
Query: rank_up(items): orders items by reported IC50 in ascending numerical order. The reply should contain the labels ordered as requested.
Reply: III, II, I
(III: 23 nM, II: 39000 nM, I: 83000 nM)

[a] C[C@@H]1CN(c2cc(=O)n(C)c3ccc(C#N)nc23)[C@@H](C)CN1Cc1c(F)cc(Cl)cc1F
[b] CC(c1ccc(OC(F)(F)F)cc1)N1C[C@H](C)N(c2cc(=O)n(C)c3ccc(C#N)nc23)C[C@H]1CO (single isomer, unassigned) [Example 1386]
Query: Which one would you say has the larger IC50 value: a , or b ? Pick one; state its label.
Reply: a

----------
# assay-target: human DGKζ (Homo sapiens)
# Construct: TVMV protease cleavage site (C); Hexa-His (C); made in house; host or cells: Sf9 insect cells (baculovirus, Bac-to-Bac)
# experiment-notes: DGKζ LIPGLO assay (extruded liposome substrate), in vitro DGK inhibition
# Type: biochemical
# condition-set: liposome (LIPGLO) assay; read-out: DGKz LIPGLO IC50
assay-readout: IC50 (µM)

Below are worked cases with known answers.
> print(dat)
                                   compound  assay.readout   u  value
1  Cc1ccc(C(c2ccc(C)cn2)N2C[C@H](C)N(c3cc(=O)n(C)c4ccc(C#N)nc34)C[C@H]2C)cc1 (single isomer, unassigned) [Example 457]           IC50  µM    1.1
2  C[C@@H]1CN(c2c(Cl)c(=O)n(C)c3ccc(C#N)nc23)[C@@H](C)CN1C(c1ccc(Cl)cc1)c1ccc(Cl)cc1           IC50  µM      3
3  COC(=O)C1CN(c2cc(=O)n(C)c3ccc(C#N)nc23)CCN1C(c1ccc(F)cc1)c1ccc(F)cc1OC (single isomer, unassigned) [Example 68]           IC50  µM   0.25
4  CC(C)C(=O)C1CN(c2cc(=O)n(C)c3ccc(C#N)nc23)CCN1C(c1ccc(F)cc1)c1ccc(F)cc1 (single isomer, unassigned) [Example 87]           IC50  µM    6.6

[I] COc1ccc2c(n1)c(N1C[C@@H](C)N(C(c3ccccc3)c3ccc(F)cc3)C[C@@H]1C)cc(=O)n2C (single isomer, unassigned) [Example 238]
[II] Cn1c(=O)cc(N2CCN(C(c3ccc(F)cc3)c3ccc(F)cc3)C(C(=O)OC3CC3)C2)c2nc(C#N)ccc21 (single isomer, unassigned) [Example 106]
Query: Given the two records I and II , choose the one whose IC50 value is lower. Pick one; state its label.
Reply: II

----------
# assay-target: human DGKα (Homo sapiens, UniProt P23743)
# Construct: TVMV protease cleavage site (C); Hexa-His (C); made in house; host or cells: Sf9 insect cells (baculovirus, Bac-to-Bac)
# experiment-notes: DGKα LIPGLO assay (extruded liposome substrate), in vitro DGK inhibition
# Assay type: biochemical
# condition-set: liposome (LIPGLO) assay; read-out: DGKa LIPGLO IC50
pIC50: −log10 of the molar value.
assay-readout: pIC50

[I] CC[C@H]1CN(C(c2ccc(Cl)cc2)c2ccc(F)cn2)[C@H](C)CN1c1cc(=O)n(C)c2ccc(C#N)nc12 (single isomer, unassigned) [Example 1130]
[II] CC(c1ccc(C(F)(F)F)cc1F)N1C[C@H](C)N(c2cc(=O)n(C)c3ccc(C#N)nc23)C[C@H]1C (single isomer, unassigned) [Example 412]
[III] C[C@@H]1CN(c2cc(=O)n(C)c3ccc(C#N)nc23)[C@@H](C)CN1C(c1ccc(Cl)cc1)c1ccc(C#N)cc1 (stereo partly drawn)
Query: Which order do these items fall in when sorted by pIC50 from largest to smallest? The reply should contain the labels ordered as requested.
Reply: I, III, II
(I: 6.77, III: 5.82, II: 4.92)

----------
# assay-target: human DGKζ (Homo sapiens)
# Construct: TVMV protease cleavage site (C); Hexa-His (C); made in house; host or cells: Sf9 insect cells (baculovirus, Bac-to-Bac)
# experiment-notes: DGKζ LIPGLO assay (extruded liposome substrate), in vitro DGK inhibition
# Type: biochemical
# condition-set: liposome (LIPGLO) assay; read-out: DGKz LIPGLO IC50
assay-readout: IC50 (nM)

[I] C[C@@H]1CN(c2cc(=O)n(C)c3ccc(C#N)nc23)[C@@H](C)CN1C(c1ccc(F)cc1)c1ncccn1 (stereo partly drawn) [Example 676]
[II] Cc1ccc(C(c2cccc(C)n2)N2C[C@H](C)N(c3cc(=O)n(C)c4ccc(C#N)nc34)C[C@H]2C)cc1 (stereo partly drawn)
Query: Given the two records I and II , choose the one whose IC50 value is lower. Pick one; state its label.
Reply: II
(II: 290 nM, I: 5400 nM)

[I] Cc1ccc(C(c2cccc(F)n2)N2C[C@H](C)N(c3cc(=O)n(C)c4ccc(C#N)nc34)C[C@H]2C)cc1 (stereo partly drawn) [Example 476]
[II] CC(c1ccc(OC(F)(F)F)cc1)N1C[C@H](CO)N(c2cc(=O)n(C)c3ccc(C#N)nc23)C[C@H]1C (single isomer, unassigned) [Example 1420]
[III] CCC(c1ccc(C2CC2)cc1)N1C[C@H](C)N(c2cc(=O)n(C)c3ccc(C#N)nc23)C[C@H]1C (single isomer, unassigned) [Example 1220]
[IV] COC(=O)C1CN(c2c(Cl)c(=O)n(C)c3ccc(C#N)nc23)CCN1C(c1ccc(F)cc1)c1ccc(F)cc1 (single isomer, unassigned) [Example 76]
Query: # sort list by recorded IC50, greatest to least The reply should contain the labels ordered as requested.
Reply: IV, II, I, III
